Target: T1, human Gal10-His (human, UniProt Q05315 2-142, limits assumed)
T1 construct: also called hGal10-His; human Gal10-His tagged; not shown: His tag
T1 sequence: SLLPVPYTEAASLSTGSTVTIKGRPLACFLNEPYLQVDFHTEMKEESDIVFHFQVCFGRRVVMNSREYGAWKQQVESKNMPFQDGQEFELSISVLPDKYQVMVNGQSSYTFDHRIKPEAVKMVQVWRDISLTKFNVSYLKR
Assay: SPR Biacore 3000, purified hFab (2 conc.) on Gal10-His captured by anti-His CM5
Quantity Name: kd-fold drop vs g7B07 (fold)
Return type: number; implicit unit fold.

The value of kd-fold drop vs g7B07 measured for the binder g7B07_N53A (human Fab) (Fab, V domains shown, VH assembled by inference as for g7B07; Human Fab backbone; also called g7B07_N53A (mean)) VH: EVQLLESGGGLVQPGGSLRLSCAASGFTFRSYDMSWVRQAPGKGLEWVSAIKAGGGITYYADSVKGRFTISRDNSKNTLYLQMNSLRAEDTAVYYCATTHGIGTLGFGSWGQGTLVTVSS VL: SYELTQPLSVSVALGQTARITCDGNNIGSKSAQWYQQKPGQAPVLVIYADEYRPEGIPERFSGSNSGNTATLTISRAQAGDEADYYCQVWDGSAAVFGGGTQLTVL turned out to be 0.06

The value of kd-fold drop vs g7B07 measured for the binder g20H09 (Fab) (Fab, V domains shown, same VH/VL) VH: EVQLLESGGGLVQPGGSLRLSCAASGFTFRSYDMSWVRQAPGKGLEWVSAIKWHRITYYADSVKGRFTISRDNSKNTLYLQMNSLRAEDTAVYYCATTHGIGTLGFGSWGQGTLVTVSS VL: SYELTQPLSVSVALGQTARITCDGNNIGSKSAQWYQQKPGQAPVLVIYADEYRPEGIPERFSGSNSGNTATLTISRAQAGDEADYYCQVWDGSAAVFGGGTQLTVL turned out to be 0.3

The value of kd-fold drop vs g7B07 measured for the binder g24F02_N53A (human Fab) (Fab, V domains shown, Human Fab backbone: human CH1 and human lambda constant domain (pUPEX vectors); also called g24F02_N53A_2W) VH: EVQLLESGGGLVQPGGSLRLSCAASGFTFSSYAMSWVRQAPGKGLEWVSAINAGGGSTSYADSVKGRFTISRDNSKNTLYLQMNSLRAEDTAVYYCAKGLRVGVLGFDYWGQGTLVTVSS VL: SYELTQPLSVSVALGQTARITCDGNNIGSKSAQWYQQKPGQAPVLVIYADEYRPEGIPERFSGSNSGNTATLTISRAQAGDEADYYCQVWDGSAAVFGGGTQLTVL turned out to be 2.8
